Test system: MOLT-4
protocolText: Proliferation assay, MOLT-4
Assay type: cell-based
assayContext: Homo sapiens, 72 hrs
propertyLabel: IC50 (nM)

{"smilesStructure": "O=C(COc1cccc(-c2nc3c(c(Nc4ccc(-c5cn[nH]c5)cc4)n2)COC3)c1)NC1CCC1", "unitName": "nM", "reported": 385}

(I) CC(C)NC(=O)COc1cccc(-c2nc(Nc3ccc(-c4cn[nH]c4)cc3)c3sccc3n2)c1
(II) CC(C)NC(=O)COc1cccc(-c2nc3c(c(Nc4ccc(-c5cn[nH]c5)cc4)n2)COC3)c1
(III) O=C(COc1cccc(-c2nc(Nc3ccc(-c4cn[nH]c4)cc3)c3sccc3n2)c1)NC1CCCC1
(IV) O=C(COc1cccc(-c2nc3c(c(Nc4ccc(-c5cn[nH]c5)cc4)n2)COC3)c1)NC1CCCC1
Ask: Rank the 4 molecules: largest IC50 first, smallest last. Give the labels in the order requested.
Reply: II, I, III, IV
(II: 1620 nM, I: 823 nM, III: 417 nM, IV: 264 nM)

Source of measurements: patent US10273248B2
